Molecular target: Sulfolobus solfataricus SsoPox variant αsA1 (C258L/I261F/W263A), SEQ ID NO: 21 (Saccharolobus solfataricus, UniProt Q97VT7, C258L/I261F/W263A)
Construct: made in house; host or cells: E. coli BL21(DE3)-pGro7/GroEL
Format: biochemical
Details: pH 8
Property: Catalytic activity; scope: individual compounds

>  <COMPOUND>
COP(=O)(OC)Oc1ccc([N+](=O)[O-])cc1

>  <Catalytic activity>
2.29(±1.09) · 10^4 M^−1s^−1

$$$$
>  <COMPOUND>
COP(=S)(OC)Oc1ccc([N+](=O)[O-])cc1

>  <Catalytic activity>
3.68(±0.5) · 10^1 M^−1s^−1

$$$$
>  <COMPOUND>
CCOP(=O)(OCC)Oc1ccc([N+](=O)[O-])cc1

>  <Catalytic activity>
3.37(±0.94) · 10^4 M^−1s^−1

$$$$
>  <COMPOUND>
CCOC(=O)CC(SP(=S)(OC)OC)C(=O)OCC (stereo not shown)

>  <Catalytic activity>
3.2 ± 0.7 M⁻¹ s⁻¹

$$$$
